assay: Toxicity in po dosed Rowett nude rat xenografted with human NCI-H2228 cells; format: organism-based; conditions: in vivo
measureName: MTD (mg/kg)

structureString | measurementUnits | readoutNumber
Cc1cc(Nc2ncc(Cl)c(Nc3ccccc3S(=O)(=O)C(C)C)n2)c(OC(C)C)cc1C1CCNCC1 | mg/kg | 5

* * *

assay: AUC in Beagle dog at 20 mg/kg, po; format: ADME, organism-based, Canis lupus familiaris; set-up: dose 20 mg/kg, route oral; details: plasma

structureString | AUC [µM·h]
Cc1cc(Nc2ncc(Cl)c(Nc3ccccc3S(=O)(=O)C(C)C)n2)c(OC(C)C)cc1C1CCNCC1 | 67.9

* * *

molecular target: Tyrosine-protein kinase JAK2 (Homo sapiens, UniProt O60674); test: Inhibition of JAK2 (unknown origin) after 60 mins
Sequence (O60674 whole entry): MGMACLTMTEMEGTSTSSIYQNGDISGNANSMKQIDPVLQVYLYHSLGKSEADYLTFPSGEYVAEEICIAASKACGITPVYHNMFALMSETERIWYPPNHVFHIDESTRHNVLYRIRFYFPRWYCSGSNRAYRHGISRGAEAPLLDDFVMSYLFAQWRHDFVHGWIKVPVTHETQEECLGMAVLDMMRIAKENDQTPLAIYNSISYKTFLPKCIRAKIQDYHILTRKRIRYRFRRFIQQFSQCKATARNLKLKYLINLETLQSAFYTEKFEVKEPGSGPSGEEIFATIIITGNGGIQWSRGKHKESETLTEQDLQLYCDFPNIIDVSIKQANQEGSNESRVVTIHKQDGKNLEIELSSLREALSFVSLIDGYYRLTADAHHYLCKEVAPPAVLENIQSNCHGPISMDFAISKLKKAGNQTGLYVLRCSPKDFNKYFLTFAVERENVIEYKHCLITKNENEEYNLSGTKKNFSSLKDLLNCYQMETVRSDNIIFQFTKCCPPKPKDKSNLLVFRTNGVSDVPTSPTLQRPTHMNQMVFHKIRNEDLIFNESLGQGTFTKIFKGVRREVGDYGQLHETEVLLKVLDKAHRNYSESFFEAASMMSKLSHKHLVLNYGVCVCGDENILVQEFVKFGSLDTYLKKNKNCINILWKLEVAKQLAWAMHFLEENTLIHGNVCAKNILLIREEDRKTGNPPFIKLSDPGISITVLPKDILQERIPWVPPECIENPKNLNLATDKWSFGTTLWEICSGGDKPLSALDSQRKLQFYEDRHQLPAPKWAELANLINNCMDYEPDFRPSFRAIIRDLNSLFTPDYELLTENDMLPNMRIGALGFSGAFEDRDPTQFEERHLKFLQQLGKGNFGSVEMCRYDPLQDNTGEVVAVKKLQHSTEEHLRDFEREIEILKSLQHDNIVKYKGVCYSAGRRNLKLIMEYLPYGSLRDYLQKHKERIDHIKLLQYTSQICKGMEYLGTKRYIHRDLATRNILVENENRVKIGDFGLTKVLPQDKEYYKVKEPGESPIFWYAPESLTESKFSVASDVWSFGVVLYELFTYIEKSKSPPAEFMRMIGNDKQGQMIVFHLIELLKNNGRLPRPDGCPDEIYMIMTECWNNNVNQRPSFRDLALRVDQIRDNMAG
measureName: IC50 (nM)

compound | measurementUnits | readoutNumber
Cc1cc(Nc2ncc(Cl)c(Nc3ccccc3S(=O)(=O)C(C)C)n2)c(OC(C)C)cc1C1CCNCC1 [CERITINIB] | nM | 610

* * *

target: Fibroblast growth factor receptor 2 (Homo sapiens)
Sequence (P21802 whole entry): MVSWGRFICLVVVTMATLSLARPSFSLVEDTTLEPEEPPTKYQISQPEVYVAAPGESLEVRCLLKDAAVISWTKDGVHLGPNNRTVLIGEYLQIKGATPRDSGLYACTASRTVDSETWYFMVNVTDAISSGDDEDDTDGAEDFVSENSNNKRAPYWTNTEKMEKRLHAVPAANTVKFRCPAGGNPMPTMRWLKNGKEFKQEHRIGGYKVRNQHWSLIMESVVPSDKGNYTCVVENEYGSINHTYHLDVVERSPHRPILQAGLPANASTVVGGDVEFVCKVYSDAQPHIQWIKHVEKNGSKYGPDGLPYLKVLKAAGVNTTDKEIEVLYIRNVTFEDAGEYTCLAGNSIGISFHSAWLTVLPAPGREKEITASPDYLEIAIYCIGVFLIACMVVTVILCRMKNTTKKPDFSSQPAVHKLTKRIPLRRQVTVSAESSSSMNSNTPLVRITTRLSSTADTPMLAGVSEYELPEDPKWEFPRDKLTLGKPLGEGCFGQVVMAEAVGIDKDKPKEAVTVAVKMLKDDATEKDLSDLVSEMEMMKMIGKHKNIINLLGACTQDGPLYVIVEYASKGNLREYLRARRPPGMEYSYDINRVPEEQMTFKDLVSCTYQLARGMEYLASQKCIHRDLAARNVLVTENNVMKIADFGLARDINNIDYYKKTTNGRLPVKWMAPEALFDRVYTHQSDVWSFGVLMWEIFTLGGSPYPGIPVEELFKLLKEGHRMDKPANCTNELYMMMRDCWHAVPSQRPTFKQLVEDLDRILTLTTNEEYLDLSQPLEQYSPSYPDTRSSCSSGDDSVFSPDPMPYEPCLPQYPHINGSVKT
measureName: IC50 (nM)

structureString | readoutNumber
Cc1cc(Nc2ncc(Cl)c(Nc3ccccc3S(=O)(=O)C(C)C)n2)c(OC(C)C)cc1C1CCNCC1 | 260

* * *

biological target: Platelet-derived growth factor receptor alpha (Homo sapiens, UniProt P16234)
Sequence (P16234 whole entry): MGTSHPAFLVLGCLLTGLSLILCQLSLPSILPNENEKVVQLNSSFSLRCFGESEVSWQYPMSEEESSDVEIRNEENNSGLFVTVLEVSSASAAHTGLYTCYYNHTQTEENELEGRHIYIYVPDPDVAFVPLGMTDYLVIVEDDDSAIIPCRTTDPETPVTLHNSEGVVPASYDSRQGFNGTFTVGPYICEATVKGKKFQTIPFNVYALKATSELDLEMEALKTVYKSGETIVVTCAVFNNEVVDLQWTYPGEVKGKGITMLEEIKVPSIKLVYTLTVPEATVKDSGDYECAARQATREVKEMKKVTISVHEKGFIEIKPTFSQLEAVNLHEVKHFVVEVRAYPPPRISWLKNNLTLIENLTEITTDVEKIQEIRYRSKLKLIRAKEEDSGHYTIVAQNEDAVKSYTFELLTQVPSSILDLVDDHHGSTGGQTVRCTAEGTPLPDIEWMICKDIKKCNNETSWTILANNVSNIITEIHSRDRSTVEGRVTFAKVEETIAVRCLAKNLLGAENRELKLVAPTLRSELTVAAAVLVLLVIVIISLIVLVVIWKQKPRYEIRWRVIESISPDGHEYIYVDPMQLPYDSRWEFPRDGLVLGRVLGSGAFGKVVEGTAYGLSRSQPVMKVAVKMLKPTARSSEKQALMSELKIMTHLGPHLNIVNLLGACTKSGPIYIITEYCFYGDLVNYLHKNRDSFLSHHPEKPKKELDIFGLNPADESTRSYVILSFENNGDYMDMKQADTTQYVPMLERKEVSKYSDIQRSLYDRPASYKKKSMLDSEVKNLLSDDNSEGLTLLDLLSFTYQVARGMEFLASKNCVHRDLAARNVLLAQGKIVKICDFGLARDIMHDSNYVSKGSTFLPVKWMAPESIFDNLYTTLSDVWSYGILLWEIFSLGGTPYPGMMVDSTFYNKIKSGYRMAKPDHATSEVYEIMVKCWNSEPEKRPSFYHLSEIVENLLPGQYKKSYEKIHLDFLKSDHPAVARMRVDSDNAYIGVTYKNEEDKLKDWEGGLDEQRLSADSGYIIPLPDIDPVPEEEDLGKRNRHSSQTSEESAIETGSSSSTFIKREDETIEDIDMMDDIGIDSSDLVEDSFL

structureString | measurementUnits | IC50
Cc1cc(Nc2ncc(Cl)c(Nc3ccccc3S(=O)(=O)C(C)C)n2)c(OC(C)C)cc1C1CCNCC1 | nM | 1140

* * *

target: High affinity nerve growth factor receptor (Homo sapiens)
Sequence (P04629 33-796 limits assumed): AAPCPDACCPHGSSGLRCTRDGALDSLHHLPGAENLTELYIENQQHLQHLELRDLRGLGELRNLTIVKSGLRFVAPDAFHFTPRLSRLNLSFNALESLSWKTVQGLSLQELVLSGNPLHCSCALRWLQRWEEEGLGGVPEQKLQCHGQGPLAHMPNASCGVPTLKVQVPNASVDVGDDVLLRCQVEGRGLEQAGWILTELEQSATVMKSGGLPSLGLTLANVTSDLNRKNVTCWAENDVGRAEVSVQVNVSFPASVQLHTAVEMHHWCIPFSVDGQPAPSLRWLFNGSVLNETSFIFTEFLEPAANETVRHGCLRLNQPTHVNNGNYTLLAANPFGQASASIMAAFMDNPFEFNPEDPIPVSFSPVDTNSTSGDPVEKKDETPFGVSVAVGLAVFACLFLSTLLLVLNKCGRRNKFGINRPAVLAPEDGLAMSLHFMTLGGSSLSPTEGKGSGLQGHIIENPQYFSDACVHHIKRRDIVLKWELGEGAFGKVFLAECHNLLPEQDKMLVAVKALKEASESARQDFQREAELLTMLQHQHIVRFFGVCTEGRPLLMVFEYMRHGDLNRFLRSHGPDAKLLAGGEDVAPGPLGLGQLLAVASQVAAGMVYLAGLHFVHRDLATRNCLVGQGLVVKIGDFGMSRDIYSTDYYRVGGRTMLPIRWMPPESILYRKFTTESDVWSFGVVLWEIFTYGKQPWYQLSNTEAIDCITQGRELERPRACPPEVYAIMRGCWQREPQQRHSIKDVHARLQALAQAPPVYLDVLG

structureString | IC50, nM
Cc1cc(Nc2ncc(Cl)c(Nc3ccccc3S(=O)(=O)C(C)C)n2)c(OC(C)C)cc1C1CCNCC1 | 2730
